The origin of these recorded values is patent US5932189A.

Below: a set of entries, each annotated with reported Ki.
- experimental target: somatostatin receptors (Rattus norvegicus, UniProt P30680)
- Construct: endogenous in cells
- Sequence (P30680 whole entry): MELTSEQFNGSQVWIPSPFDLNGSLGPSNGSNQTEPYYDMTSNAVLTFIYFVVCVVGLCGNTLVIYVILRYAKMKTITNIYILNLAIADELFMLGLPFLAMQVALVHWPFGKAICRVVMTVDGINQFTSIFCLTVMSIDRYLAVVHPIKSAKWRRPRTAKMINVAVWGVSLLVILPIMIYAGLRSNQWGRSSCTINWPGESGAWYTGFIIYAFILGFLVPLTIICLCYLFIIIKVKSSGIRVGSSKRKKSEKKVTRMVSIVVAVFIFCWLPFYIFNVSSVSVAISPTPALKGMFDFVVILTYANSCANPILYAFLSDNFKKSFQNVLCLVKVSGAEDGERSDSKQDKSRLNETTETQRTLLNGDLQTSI
- method: Inhibition of binding of (125I-Tyr11)somatostatin-14 to AR42J rat pancreatic tumor cell membranes
- run conditions: 0.5 nM (125I-Tyr11)somatostatin-14, 25 min at 30° C., Hill plots
Square brackets hold non-standard residues; d marks the D form. Peptide text beside a SMILES is read from it. * marks the point of attachment. X4 = NCCCC[C@H](NC(=O)[C@H](CS)NC(=O)CNC(=O)[C@@H](N)CCCCNC(=O)C*)C(N)=O; X8 = NC(=O)[C@H](CCC(=O)O)NC(=O)[C@H](CS)NC(=O)CNC(=O)[C@H](CS)NC(=O)C*; X2 = N=C(N)NCCC[C@H](NC(=O)[C@H](CS)NC(=O)CNC(=O)CNC(=O)C*)C(N)=O; NMeF = CN[C@@H](Cc1ccccc1)C(=O)O; hCys = N[C@@H](CCS)C(=O)O
Write the answer as a number in nM, unit excluded.

molecule	experimental target	Ki, nM
CC(C)[C@@H]1NC(=O)[C@H](CCCCN)NC(=O)[C@@H](Cc2c[nH]c3ccccc23)NC(=O)[C@H](Cc2ccc(O)cc2)NC(=O)[C@H](Cc2ccccc2)N(C)C(=O)[C@H](CCSCC(=O)NCC(=O)NCC(=O)N[C@@H](CS)C(=O)N[C@@H](CCCNC(=N)N)C(N)=O)NC1=O (cyclo([NMeF]Y[dW]KV[hCys](X2)))	somatostatin receptors (Rattus norvegicus, UniProt P30680)	0.29
CC(C)[C@@H]1NC(=O)[C@H](CCCCN)NC(=O)[C@@H](Cc2c[nH]c3ccccc23)NC(=O)[C@H](Cc2ccc(O)cc2)NC(=O)[C@H](Cc2ccccc2)N(C)C(=O)[C@H](CCSCC(=O)NCCCC[C@H](N)C(=O)NCC(=O)N[C@@H](CS)C(=O)N[C@@H](CCCCN)C(N)=O)NC1=O (cyclo([NMeF]Y[dW]KV[hCys](X4)))	somatostatin receptors (Rattus norvegicus, UniProt P30680)	4.2

// query Requested read-out: Ki. Entry: CC(C)[C@@H]1NC(=O)[C@H](CCCCN)NC(=O)[C@@H](Cc2c[nH]c3ccccc23)NC(=O)[C@H](Cc2ccc(O)cc2)NC(=O)[C@H](Cc2ccccc2)N(C)C(=O)[C@H](CCSCC(=O)N[C@@H](CS)C(=O)NCC(=O)N[C@@H](CS)C(=O)N[C@@H](CCC(=O)O)C(N)=O)NC1=O (cyclo(KV[hCys](X8)[NMeF]Y[dW]))
// result 8.5
